B1: Ankyrin-3, residues 4094 to 4171; numbered along this chain, Q12955 (parent)
chain: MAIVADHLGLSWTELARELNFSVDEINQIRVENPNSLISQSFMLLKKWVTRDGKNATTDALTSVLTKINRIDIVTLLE

# Variants of: B1
# method: abundance fitness (aPCA) (normalised: wild type 0, dead -1); higher = more abundant; growth selection in yeast, the domain comes from the species named
# test_conditions: Homo sapiens
Catalogue of variants with associated abundance fitness
reported_metric: abundance fitness

1. E32P ... -0.593
2. L44D ... -0.695
3. K47Q ... -0.19
4. L76D ... -0.351
5. L10F ... 0.032
6. T50W ... -0.065
7. T62I ... -0.386
8. I71W ... -0.029
9. V31H ... 0.145
10. E25H ... -0.859
11. F21I ... -0.665
